biological target: CYP2C9 (Homo sapiens, UniProt P11712); test: biochemical
Sequence (P11712 whole entry): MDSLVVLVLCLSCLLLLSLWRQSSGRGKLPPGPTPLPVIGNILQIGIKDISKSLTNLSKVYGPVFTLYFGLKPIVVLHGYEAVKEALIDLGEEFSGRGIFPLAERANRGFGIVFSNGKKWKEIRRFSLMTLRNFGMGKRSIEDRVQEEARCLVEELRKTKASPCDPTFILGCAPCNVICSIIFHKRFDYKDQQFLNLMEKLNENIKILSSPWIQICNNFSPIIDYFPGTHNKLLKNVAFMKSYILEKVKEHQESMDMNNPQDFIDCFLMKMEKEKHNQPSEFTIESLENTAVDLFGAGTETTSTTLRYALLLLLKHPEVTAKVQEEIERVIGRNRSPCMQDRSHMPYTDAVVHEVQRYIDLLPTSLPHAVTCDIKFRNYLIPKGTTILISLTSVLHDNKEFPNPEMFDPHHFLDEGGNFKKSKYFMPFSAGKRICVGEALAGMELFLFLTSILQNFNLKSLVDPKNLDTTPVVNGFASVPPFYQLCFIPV
pIC50: −log10 of the molar value. Where a name gives a salt, the structure may show the parent alone.
measured.parameter: pIC50

# example entries with known answers
O=C(c1cc(Br)c(O)c(Br)c1)N1CCOc2ncc(-c3ccccc3C(F)(F)F)cc21: 5.96
O=C(c1cc(Cl)c(O)c([N+](=O)[O-])c1)N1CCOc2ccncc21: 4.78
O=C(c1cc(Br)c(O)c(Br)c1)N1CCOc2ncc(-c3cccc([N+](=O)[O-])c3)cc21: 5.90

A = Oc1c(Br)cc(C(=S)N2CCOc3ccncc32)cc1Br [Compound 74, trifluoroacetic acid salt]
B = O=C(c1ccc(O)c(Cl)c1)N1CCOc2cnccc21 [Compound 18]
C = O=S(=O)(c1cc(Cl)c(O)c(Cl)c1)N1CCOc2ccncc21
D = O=C(c1cc(Br)c(O)c(Br)c1)N1CCOc2ncc(-c3ccccc3)cc21
-- ask Arrange the 4 compounds by rising pIC50, starting with the smallest. Hello, could you send the labels back in the order asked? Thank you.
-- reply A, B, D, C
